tested on: KB; assay: Cytotoxicity against human KB cells by SRB method; assay type: functional, cell-based
Field: label. Allowed values: fulfilled (IC50 < 20 µM) or not fulfilled (IC50 >= 20 µM).

C=C1[C@@H]2CC[C@H]3[C@]4(C)C[C@H](O)C[C@](C)(CO)[C@H]4CC[C@]3(C2)[C@H]1O | not fulfilled

## Task IC50 strictly < 20 µM for this compound? Cc1cc2c(c(C)c1CCO)C(=O)[C@H](C)[C@@H]2O[C@@H]1O[C@H](CO)[C@@H](OC(=O)/C=C/c2ccc(O)cc2)[C@H](O)[C@H]1O
## Result not fulfilled

## Task Now this one: Cc1cc2c(c(C)c1CCO[C@@H]1O[C@H](CO)[C@@H](OC(=O)/C=C/c3ccc(O)cc3)[C@H](O)[C@H]1O)C(=O)[C@H](C)C2
## Result not fulfilled

## Task Now this one: C=C1[C@@H]2CC[C@H]3[C@]4(C)C[C@H](O)C[C@](C)(CO)[C@H]4CC[C@]3([C@@H]2O)[C@H]1O
## Result not fulfilled

## Task Now this one: COc1cccc2c1C(=O)c1c(O)c3c(c(O)c1C2=O)C[C@@](O)(C(=O)CO)C[C@@H]3O[C@H]1C[C@H](N)[C@H](O)[C@H](C)O1 [DOXORUBICIN]
## Result not fulfilled

## Task Now this one: CC(=O)O[C@@]12CO[C@@H]1C[C@H](O)[C@@]1(C)C(=O)[C@H](O)C3=C(C)[C@@H](OC(=O)[C@H](O)[C@@H](NC(=O)OC(C)(C)C)c4ccccc4)C[C@@](O)([C@@H](OC(=O)c4ccccc4)[C@H]21)C3(C)C [DOCETAXEL]
## Result fulfilled

## Task Now this one: CC1(C)C[C@@H](O)C[C@]2(C)[C@@H]1[C@H](O)C[C@@]13C[C@@H](CC[C@H]12)[C@@](O)(CO)C3
## Result not fulfilled

## Task Now this one: Cc1cc2c(c(C)c1CCO)C(=O)[C@@H](C)[C@@H]2O[C@@H]1O[C@H](CO)[C@@H](OC(=O)/C=C/c2ccc(O)cc2)[C@H](O)[C@H]1O
## Result fulfilled
